system.name: Sphingosine kinase 1 (Homo sapiens, UniProt Q9NYA1)
Sequence (Q9NYA1 whole entry): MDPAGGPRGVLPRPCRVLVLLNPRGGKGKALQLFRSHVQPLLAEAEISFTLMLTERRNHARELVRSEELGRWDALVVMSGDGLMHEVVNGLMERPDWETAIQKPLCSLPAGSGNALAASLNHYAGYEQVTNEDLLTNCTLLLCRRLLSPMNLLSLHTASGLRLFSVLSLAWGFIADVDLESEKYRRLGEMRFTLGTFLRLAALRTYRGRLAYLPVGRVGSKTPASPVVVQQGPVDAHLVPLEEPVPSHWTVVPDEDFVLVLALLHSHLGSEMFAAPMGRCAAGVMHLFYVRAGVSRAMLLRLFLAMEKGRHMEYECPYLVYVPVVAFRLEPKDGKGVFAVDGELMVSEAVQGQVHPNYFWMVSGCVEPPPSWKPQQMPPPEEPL
assay.endpoint: pIC50
Field pIC50 (float): negative decimal logarithm of the concentration in molar.

Item CCCCOC(=O)Nc1ccc(C(O)CN2CCN(c3ccncc3)CC2)cc1 (stereo unspecified) ; assay system Sphingosine kinase 1 (Homo sapiens, UniProt Q9NYA1); pIC50 reported as 4.26
